property name: melting point

## Task # input compound: CC1(C)OC(c2ccc(S(C)(=O)=O)c(Br)c2)=C(c2cc(F)cc(F)c2)C1=O [Example 345] ; wanted: its melting point
## Result 194 to 195 °C

## Task Consider next the compound CCC1(C)OC(c2ccc(S(N)(=O)=O)cc2)=C(c2ccsc2)C1=O (centres unmarked) [Example 44] in the same way.
## Result 120 to 121 °C

## Task Consider next the compound Cc1cc(C2=C(c3cccc(F)c3)C(=O)C(C)(C)O2)ccc1S(C)(=O)=O [Example 378] in the same way.
## Result 138 to 139 °C

## Task Consider next the compound CC1(C)OC(c2ccc(S(C)(=O)=O)cc2)=C(c2ccc(-c3ccccc3)cc2)C1=O [Example 77] in the same way.
## Result 150 to 153 °C

***
## Task # input compound: COc1c(C)cc(C2=C(c3ccc(S(C)(=O)=O)cc3)OC(C)(C)C2=O)cc1C [Example 12] ; wanted: its melting point
## Result 130 to 131 °C

## Task Consider next the compound CCC1(C)OC(c2ccc(S(N)(=O)=O)cc2)=C(c2ccc(C(C)=O)cc2)C1=O (centres unmarked) [Example 45] in the same way.
## Result 154 to 155 °C
